# assay.system: T1, full length human GLP-1R with N-terminal FLAG tag and C-terminal GFP tag, on CHO cells (human, UniProt P43220 24-463)
# T1 construct: whole, on cells; the cell line itself is tied to UniProt P43220; also called FLAG-GLP-1R-GFP; CHO-GLP-1R
# experimental.details: flow cytometry titration, CHO GLP1R cells
# Protocol: GLP-1R IgG clones were tested in a binding assay coupled to flow cytometry analysis as follows: FLAG-GLP-1R-GFP expressing CHO cells (CHO-GLP-1R) and CHO-parent cells were incubated with 100 nM IgG for 1 h on ice, washed three times and incubated with Alexa 647 conjugated goat-anti-human antibody (1:200) (Jackson ImmunoResearch Laboratories, 109-605-044) for 30 min on ice, followed by three washes, centrifuging to pellet the cells between each washing step. […]
pEC50: −log10 of the molar value.
Listing of entries alongside the reported pEC50.
quantity.name: pEC50

- GLP1R-222-081 (antibody, V domains shown, IgG) VH: QVQLVESGGGVVQPGRSLRLSCAASGFTFDNYALHWVRQAPGKGLEWVALISYDAGNKYYADSVKGRFTISRDNSKNTLYLQMNSLRAEDTAVYYCAKHMSMQEGAVTGEGQAAKEFIAWLVKGFVRADLVGDAFDVWGQGTLVTVSS VL: QSVLTQPPSVSAAPGQKVTISCSGSSSNIGSDYVSWYQQLPGTAPKLLIYDNNKRSSGIPDRFSGSKSGTSATLGITGLQTGDEADYYCGTWDESLRSWVFGGGTKLTVL: 7.65
- GLP1R-222-052 (antibody, V domains shown, IgG) VH: QVQLVESGGGVVQPGRSLRLSCAASGFTFNNYPMHWVRQAPGKGLEWVAVISYDESNKYYADSVKGRFTISRDNSKNTLYLQMNSLRAEDTAVYYCAKHMSMQEGAVTGGGQAAKEFIAWLVKGRVRADLVGDAFDVWGQGTLVTVSS VL: QSVLTQPPSVSAAPGQKVTISCSGSSSNIGKRSVSWYQQLPGTAPKLLIYDNNKRASGIPDRFSGSKSGTSATLGITGLQTGDEADYYCVTWDRSLSAGVFGGGTKLTVL: 7.76
- GLP1R-222-073 (antibody, V domains shown, IgG) VH: QVQLVESGGGVVQPGRSLRLSCAASGFTFRDYGMHWVRQAPGKGLEWVAFIRYDEINKYYADSVKGRFTISRDNSKNTLYLQMNSLRAEDTAVYYCAKHMSMQEGAVTGEGQAAKEFIAWLVGGRVRADLVGDAFDVWGQGTLVTVSS VL: QSVLTQPPSVSAAPGQKVTISCSGSGSNIGNNDVSWYQQLPGTAPKLLIYDNNKRASGIPDRFSGSKSGTSATLGITGLQTGDEADYYCGTWDRGPNTGVFGGGTKLTVL: 7.88
- GLP1R-222-082 (antibody, V domains shown, IgG) VH: QVQLVESGGGVVQPGRSLRLSCAASGFTFSAYSMHWVRQAPGKGLEWVALISYDATNKYYADSVKGRFTISRDNSKNTLYLQMNSLRAEDTAVYYCAKHMSMQEGAVTGEFQAAKEFIAWLVKGRVRADLVGDAFDVWGQGTLVTVSS VL: QSVLTQPPSVSAAPGQKVTISCSGSSSNIGSKYVSWYQQLPGTAPKLLIYDNNKRPSGIPDRFSGSKSGTSATLGITGLQTGDEADYYCGTWDISPSAWVFGGGTKLTVL: 7.94
